FYI, the data here is from patent US20240116946A1.

Recorded log10(IC50) by entry
# target: recombinant SARS-CoV-2 Main protease (Mpro) (Severe acute respiratory syndrome coronavirus 2 (2019-nCoV) (SARS-CoV-2))
# protocolNotes: Cov Mpro Biochemical IC50 Assay
# testConditions: recombinant SARS-CoV-2 Mpro 7.5 nM, fluorogenic peptide substrate 40 μM; read-out: MPro IC50
For clarity, the numbers are log10 values of IC50 expressed in nM.

The cases that follow already have their log10(IC50) on record.
[
  {
    "compound": "COc1cc(-c2cc3c(s2)c(=O)n(-c2cncc4cccc(F)c24)c(=O)n3CCC#N)c(C#N)cc1F",
    "readoutLabel": "log10(IC50)",
    "recordedNumber": 1.01
  },
  {
    "compound": "COc1ccc(C#N)c(-c2cc3c(cc2F)c(=O)n(-c2cncc4ccccc24)c(=O)n3CCC#N)c1",
    "readoutLabel": "log10(IC50)",
    "recordedNumber": 1.94
  },
  {
    "compound": "Cc1c(Cl)cncc1-n1c(=O)c2sc(-c3ccc(F)cc3Cl)cc2n(CCC#N)c1=O",
    "readoutLabel": "log10(IC50)",
    "recordedNumber": 1.31
  }
]

Now consider the entry below.
Qu. Endpoint output: log10(IC50) of Cn1ncc2cncc(-n3c(=O)c4sc(-c5ccc(F)cc5Cl)cc4n(CCC#N)c3=O)c21 (single isomer, unassigned) [Example 955] . Value?
Ans. 0.83

---

# Tested on: SARS-CoV-2-NLuc
# protocolNotes: microbe, parasite or virus in culture
# Assay type: cell-based, SARS Coronavirus 2
# testConditions: Severe acute respiratory syndrome coronavirus, 48 h; read-out: MPro EC50
readoutLabel: EC50 (µM)
Just the number please, in µM, no unit attached.

The cases that follow already have their EC50 on record.
[
  {
    "compound": "COc1ccc(Cl)c(-c2ccc3c(=O)n(-c4cncc5ccc(N6CC7(CCOC7)C6)cc45)c(=O)[nH]c3c2)c1 [Example 410]",
    "measurementUnit": "µM",
    "EC50": 0.0587
  },
  {
    "compound": "COc1cnc(Cl)c(-c2cc3[nH]c(=O)n(-c4cncc(C5CC5)c4)c(=O)c3s2)c1 [Example 369]",
    "measurementUnit": "µM",
    "EC50": 0.111
  },
  {
    "compound": "COc1cc(-c2cc3[nH]c(=O)n(-c4cncc5c4CCCC5)c(=O)c3s2)c(Cl)cc1F [Example 729]",
    "measurementUnit": "µM",
    "EC50": 0.00778
  }
]

Qu. Endpoint output: EC50 of Cc1ccccc1-c1cnc2c(=O)n(-c3cncc4ccccc34)c(=O)[nH]c2c1 [Example 46] . Value?
Ans. 0.989

Qu. And COc1ccc(Cl)c(-c2cc3[nH]c(=O)n(-c4cncc5sc(C(N)=O)c(C)c45)c(=O)c3s2)c1 [Example 1048] ?
Ans. 0.00986

Qu. And Cc1cncc(-n2c(=O)c3sc(-c4ccccc4C#N)cc3n(CCC#N)c2=O)c1 [Example 875] ?
Ans. 0.0324

Qu. And COc1cc(-c2cc3c(s2)c(=O)n(-c2cncc(Cl)c2C)c(=O)n3CCC#N)c(C#N)cc1F [Example 806] ?
Ans. 0.00699

Qu. And COc1ccc(Cl)c(-c2cc(F)c3c(=O)n(-c4cncc5ccccc45)c(=O)[nH]c3c2)c1 [Example 221] ?
Ans. 0.0506

Qu. And COc1cc(-c2cc3c(s2)c(=O)n(-c2cncc4cnn(C)c24)c(=O)n3CCC#N)c(C#N)cc1F [Example 999] ?
Ans. 0.0157

Qu. And COCCOc1c(C)cncc1-n1c(=O)[nH]c2cc(-c3ccccc3Cl)sc2c1=O [Example 214] ?
Ans. 0.0201

Qu. And O=c1[nH]c2cc(-c3c(Cl)cccc3-c3ccnnc3)ccc2c(=O)n1-c1cncc2ccccc12 [Example 101] ?
Ans. 0.0738

Qu. And COc1cc(-c2cc3[nH]c(=O)n(-c4cncc5cccc(Cl)c45)c(=O)c3s2)c(Cl)cc1F [Example 1078] ?
Ans. 0.00965

Qu. And O=c1[nH]c2cc(-c3c(Cl)cccc3CO)sc2c(=O)n1-c1cncc2ccccc12 [Example 235] ?
Ans. 0.289

Qu. And COc1ccc(Cl)c(-c2cc3[nH]c(=O)n(-c4cncc5c4cnn5C)c(=O)c3s2)c1 [Example 497] ?
Ans. 0.0192
